system: K562; test: Cytotoxicity against human K562 cells after 48 hrs; type: functional, cell-based; settings: K562, 48 h
quantity: IC50

Solved entries:
[[record]]
molecule = "C=C1C(=O)[C@]23C[C@H]1CC[C@H]2[C@@]12CO[C@@]3(O)[C@@H](O)[C@@H]1[C@](C)(COC(C)=O)[C@@H](O)C[C@H]2O"
data_value = "> 10 µM"

[[record]]
molecule = "CC(=O)O[C@H]1C[C@H]2C3=C(O[C@]4(CC3)C(=O)[C@@]35[C@@H]6O[C@H]7O[C@@]3(O)[C@@H](O)[C@@H]3C(C)(C)CCC[C@@]73[C@@H]5[C@@H](OC(C)=O)C[C@H]64)[C@@]34[C@@H]2O[C@H]2O[C@@]3(O)[C@@H](O)[C@@H]3C(C)(C)CCC[C@]23[C@H]14"
data_value = "> 10 µM"

[[record]]
molecule = "C=C1C(=O)[C@]23[C@H](O)[C@H]1CC[C@H]2[C@]12CCC[C@@](C)(CO)[C@H]1[C@H](O)[C@]3(O)OC2"
data_value = "> 10 µM"

[[record]]
molecule = "C=C1C(=O)[C@]23[C@H](O)[C@H]1C[C@H](O)[C@H]2[C@]12CCCC(C)(C)[C@H]1[C@H](O)[C@]3(O)O[C@@H]2OC"
data_value = "> 10 µM"

[[record]]
molecule = "C=C1C(=O)[C@]23[C@H](O)[C@H]1CC[C@H]2[C@]12CCC[C@@](C)(COC(C)=O)[C@H]1[C@H](O)[C@]3(O)OC2"
data_value = "1.6 µM"

[[record]]
molecule = "C=C1C(=O)[C@]23[C@H](O)[C@H]1CC[C@H]2[C@@]12C(O)O[C@@]3(O)[C@@H](O)[C@@H]1C(C)(C)CC[C@H]2O (stereo partly drawn)"
data_value = "5.3 µM"


Prompt: Given the molecule C=C1C(=O)[C@]23[C@H](O)[C@H]1CC[C@H]2[C@]12[C@H](O)CCC(C)(C)[C@H]1[C@H](O)[C@]3(O)O[C@@H]2O , what is its reported IC50?
Response: 5.3 µM

Prompt: Given the molecule C=C1[C@@H](O)[C@]23[C@H](O)[C@H]1C[C@H](O)[C@H]2[C@]12CCCC(C)(C)[C@H]1[C@H](OC(C)=O)[C@]3(O)OC2 , what is its reported IC50?
Response: > 10 µM

###

Entries and their measured IC50 follow.
test system: K562; test: Cytotoxicity against human K562 cells after 48 hrs; type: functional, cell-based; conditions: K562, 48 h
// note: answer is a bare numeric in nM

Solved entries:
[[record]]
smiles_representation = "C=C1C(=O)[C@@]23[C@@H]4OC5O[C@@]2(O)[C@@H](O)[C@@H]2C(C)(C)CC[C@@H](O)[C@]52[C@@H]3CC[C@@H]14"
data_value = 1300

[[record]]
smiles_representation = "C=C1C(=O)[C@]23[C@H](O)[C@H]1C[C@H](O)[C@H]2[C@]1(C=O)CCCC(C)(C)[C@H]1C(=O)[C@@H]3O"
data_value = 40


Prompt: What reported IC50 corresponds to C=C1C(=O)[C@]23[C@H](O)[C@H]1CC[C@H]2[C@@]12CCC[C@@]4(C)CO[C@H]1O[C@@]3(O)[C@@H](O)[C@H]42 on K562?
Response: 9000

Prompt: What reported IC50 corresponds to C=C1C(=O)[C@]23C[C@H]1CC[C@H]2[C@@]12CO[C@@]3(O)[C@@H](O)[C@@H]1C(C)(C)CC[C@H]2O on K562?
Response: 7600

Prompt: What reported IC50 corresponds to C=C1C(=O)[C@@]23[C@@H]4O[C@H]5O[C@@]2(O)[C@@H](O)[C@@H]2C(C)(C)CCC[C@]52[C@@H]3[C@@H](OC(C)=O)C[C@@H]14 on K562?
Response: 1600

Prompt: What reported IC50 corresponds to C=C1C(=O)[C@]23[C@H](O)[C@H]1C[C@H](OC(C)=O)[C@H]2[C@]12CCCC(C)(C)[C@H]1[C@H](O)[C@]3(O)OC2 on K562?
Response: 1400

Prompt: What reported IC50 corresponds to C=C1C(=O)[C@]23[C@H](O)[C@H]1CC[C@H]2[C@]12CCCC(C)(C)[C@H]1[C@H](O)[C@]3(O)OC2=O on K562?
Response: 1200

###

test system: K562; assay: Cytotoxicity against human K562 cells after 48 hrs; type: functional, cell-based; conditions: K562, 48 h
quantity: pIC50
Please note pIC50 is a logarithmic value: minus log10 of concentration in mol/L. Answer with that number alone.

Solved entries:
[[record]]
molecule = "C=C1C(=O)[C@]23[C@H](O)[C@H]1C[C@H](O)[C@H]2[C@]12CCCC(C)(C)[C@H]1[C@H](O)[C@]3(O)OC2 [ROSTHORIN A]"
tested_system = "K562"
quantity = "pIC50"
data_value = 6.48

[[record]]
molecule = "C=C1C(=O)[C@]23[C@H](O)[C@H]1CC[C@H]2[C@@]12C(OC)O[C@@]3(O)[C@@H](O)[C@@H]1C(C)(C)CC[C@H]2O (stereo partly drawn) [RABDOTERNIN E]"
tested_system = "K562"
quantity = "pIC50"
data_value = 5.62


Consider now this further molecule.
Prompt: What reported pIC50 corresponds to COC[C@@H]1C(=O)[C@]23[C@H](O)[C@H]1C[C@H](OC(C)=O)[C@H]2[C@]12CCCC(C)(C)[C@H]1[C@H](O)[C@]3(O)OC2 [XEROPHILUSIN X1] on K562?
Response: 5.82

###

test system: K562; assay: Cytotoxicity against human K562 cells after 48 hrs; type: functional, cell-based; details: K562, 48 h
Entries and their measured pIC50 follow.
Please note pIC50 is a logarithmic value: minus log10 of concentration in mol/L. Answer with that number alone.

Solved entries:
[[record]]
smiles_representation = "C=C1C(=O)[C@]23C[C@H]1C[C@@H](O)[C@H]2[C@]12CCC[C@@](C)(COC(C)=O)[C@H]1[C@H](O)[C@]3(O)OC2"
tested_system = "K562"
data_value = 6.25

[[record]]
smiles_representation = "C=C1C(=O)[C@@]23C(=O)[C@@H](O)[C@@H]4C(C)(C)CCC[C@@]4(C=O)[C@@H]2[C@@H](O)C[C@@H]1[C@H]3O"
tested_system = "K562"
data_value = 6.00

[[record]]
smiles_representation = "C=C1C(=O)[C@]23[C@H](O)[C@H]1C[C@H](OC(C)=O)[C@H]2[C@]12CCCC(C)(C)[C@H]1C(=O)[C@]3(O)[C@H]2O"
tested_system = "K562"
data_value = 5.37


Prompt: What reported pIC50 corresponds to C=C1C(=O)[C@]23[C@H](O)[C@H]1C[C@H](O)[C@H]2[C@]12CCCC(C)(C)[C@H]1C(=O)[C@]3(O)[C@H]2O on K562?
Response: 5.18

Prompt: What reported pIC50 corresponds to C=C1C(=O)[C@@]23[C@@H]4O[C@H]5O[C@@]2(O)[C@@H](O)[C@@H]2C(C)(C)CCC[C@]52[C@@H]3CC[C@@H]14 on K562?
Response: 5.39

Prompt: What reported pIC50 corresponds to C=C1C(=O)[C@]23[C@H](O)[C@H]1C[C@H](OC(C)=O)[C@H]2[C@]12CCCC(C)(C)[C@H]1[C@H](O)[C@]3(O)O[C@@H]2OC on K562?
Response: 5.44

###

tested on: K562; experiment: Cytotoxicity against human K562 cells after 48 hrs; assay type: functional, cell-based; settings: K562, 48 h
pIC50: −log10 of the molar value.
Entries and their measured pIC50 follow.

Solved entries:
[[record]]
smiles_representation = "C=C1C(=O)[C@]23[C@H](O)[C@H]1CC[C@H]2[C@@]12CO[C@@]3(O)[C@@H](O)[C@@H]1[C@](C)(COC(C)=O)CC[C@H]2O"
data_value = "< 5.00"

[[record]]
smiles_representation = "C=C1C(=O)[C@]23[C@H](O)[C@H]1C[C@H](O)[C@H]2[C@@]12CO[C@@]3(O)[C@@H](O)[C@@H]1[C@](C)(COC(C)=O)CC[C@H]2O"
data_value = "< 5.00"

[[record]]
smiles_representation = "C=C1C(=O)[C@]23C[C@H]1CC[C@H]2[C@@]12CO[C@@]3(O)[C@@H](O)[C@@H]1[C@](C)(COC(C)=O)CC[C@H]2O"
data_value = "< 5.00"


Prompt: Given the compound C=C1C(=O)[C@@]23[C@@H]4O[C@H]5O[C@@]2(O)[C@@H](O)[C@@H]2C(C)(C)CCC[C@]52[C@@H]3[C@@H](O)C[C@@H]14 , what is its reported pIC50?
Response: < 5.00
